# METHOD SUMMARY: Protein binding (plasma equilibrium dialysis)
# Type: in vitro ADME
# TEST PARAMETERS: 5 hours at 37° C.
RECORDED METRIC: recovery at 5 h, 1 μM (%)
Output spec: scalar in %, unitless text.

Problem: What value of recovery at 5 h, 1 μM has been recorded for this entry: `O=C(O)c1[nH]nnc1Oc1ccc(C2CCCCC2)cc1`
Solution: 101

Problem: Recorded recovery at 5 h, 1 μM of `O=C(O)c1nn[nH]c1Oc1cccc(-c2cccc(Cl)c2)c1` , please.
Solution: 112

Problem: So what's the measured recovery at 5 h, 1 μM for this one? `O=C(O)c1nn[nH]c1Oc1cccc(-c2ccc(Cl)cc2)c1`
Solution: 97.1

Problem: Quick check: recovery at 5 h, 1 μM of `C=Cc1ccc(Oc2[nH]nnc2C(=O)O)cc1` ?
Solution: 98.8

Problem: Quick check: recovery at 5 h, 1 μM of `CS(=O)(=O)c1ccc(-c2cccc(Oc3[nH]nnc3C(=O)O)c2)cc1` ?
Solution: 102

Problem: What does the record list as recovery at 5 h, 1 μM for `O=C(O)c1[nH]nnc1Oc1ccc(-c2ccc(Cl)cc2)cc1` ?
Solution: 97.7

Problem: What value of recovery at 5 h, 1 μM has been recorded for this entry: `O=C(O)c1nn[nH]c1Oc1cccc(-c2ccc3ccccc3c2)c1`
Solution: 109

Problem: So what's the measured recovery at 5 h, 1 μM for this one? `O=C(O)c1[nH]nnc1Oc1ccc(-c2ccc(Cl)c(Cl)c2)cc1`
Solution: 87.5

Problem: Consider the compound shown here: `O=C(O)c1nn[nH]c1Oc1ccc(C2CCCC2)cc1` What is its recorded recovery at 5 h, 1 μM?
Solution: 110
